Test system: P. berghei ookinete development
Settings: read-out: Pb ODA IC50; this manuscript
Quick rule for you: IC50 under 1 µM gets MET, anything else gets NOT MET.

                                        smi  category_label
0  CCOC(=O)c1c(-c2ccccc2)nc2c(sc3ccccc32)c1O         NOT MET
1  Cc1[nH]c(C)c(-c2ccc(OCc3ccccc3C(F)(F)F)nc2)c(=O)c1Br             MET
2  Cc1[nH]c(C)c(-c2ccc(-c3ccc(C(F)(F)F)cc3C(F)(F)F)nc2)c(=O)c1Br             MET
3   COc1ccc(C=C2SC(=N)N(c3ccccc3OC)C2=O)cc1             MET
4  COCCn1c(-c2cccc(Cl)c2)nn(-c2ccc([N+](=O)[O-])cc2C#N)c1=S         NOT MET
5  Cl.c1ccc(CN2CCN(CCNc3c4ccccc4nc4ccccc34)CC2)cc1         NOT MET
6  CCNC(=O)Nc1ccc(-c2cnc(N)c(-c3nc4ccc(OC)cc4[nH]3)c2)cc1         NOT MET
